Quick reference for normalized RNA/DNA level with ligand (log10) among some variants
B1: library; a variant is named by its letters at N, in order (parent)
chain: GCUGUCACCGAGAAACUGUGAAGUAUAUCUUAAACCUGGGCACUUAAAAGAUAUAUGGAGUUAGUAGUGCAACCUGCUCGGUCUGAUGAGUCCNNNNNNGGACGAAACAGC

# Variants of: B1
# Procedure Text: normalized RNA/DNA level with ligand (relative to sTRSVctl = 100) (log10 (% of sTRSVctl)); HEK293T; ligand: cyclic di-GMP (c-di-GMP-II aptamer); ligand concentration (+) RNA-Seq: 1 mM; higher = less ribozyme self-cleavage, higher mRNA level
# Run Parameters: reporter: mCherry (pCS4076), ligand present: yes
Metric Name: normalized RNA/DNA level with ligand (log10)

Residue String	Observed
GCUGUCACCGAGAAACUGUGAAGUAUAUCUUAAACCUGGGCACUUAAAAGAUAUAUGGAGUUAGUAGUGCAACCUGCUCGGUCUGAUGAGUCCUGUCAGGGACGAAACAGC	1.82
GCUGUCACCGAGAAACUGUGAAGUAUAUCUUAAACCUGGGCACUUAAAAGAUAUAUGGAGUUAGUAGUGCAACCUGCUCGGUCUGAUGAGUCCUGCAGAGGACGAAACAGC	1.8
GCUGUCACCGAGAAACUGUGAAGUAUAUCUUAAACCUGGGCACUUAAAAGAUAUAUGGAGUUAGUAGUGCAACCUGCUCGGUCUGAUGAGUCCACUGUGGGACGAAACAGC	1.76
GCUGUCACCGAGAAACUGUGAAGUAUAUCUUAAACCUGGGCACUUAAAAGAUAUAUGGAGUUAGUAGUGCAACCUGCUCGGUCUGAUGAGUCCUUCGGAGGACGAAACAGC	1.8
GCUGUCACCGAGAAACUGUGAAGUAUAUCUUAAACCUGGGCACUUAAAAGAUAUAUGGAGUUAGUAGUGCAACCUGCUCGGUCUGAUGAGUCCGCCACUGGACGAAACAGC	1.86
GCUGUCACCGAGAAACUGUGAAGUAUAUCUUAAACCUGGGCACUUAAAAGAUAUAUGGAGUUAGUAGUGCAACCUGCUCGGUCUGAUGAGUCCUUGCUCGGACGAAACAGC	1.86
GCUGUCACCGAGAAACUGUGAAGUAUAUCUUAAACCUGGGCACUUAAAAGAUAUAUGGAGUUAGUAGUGCAACCUGCUCGGUCUGAUGAGUCCAGUGUCGGACGAAACAGC	1.76
GCUGUCACCGAGAAACUGUGAAGUAUAUCUUAAACCUGGGCACUUAAAAGAUAUAUGGAGUUAGUAGUGCAACCUGCUCGGUCUGAUGAGUCCAGCGUCGGACGAAACAGC	1.9
GCUGUCACCGAGAAACUGUGAAGUAUAUCUUAAACCUGGGCACUUAAAAGAUAUAUGGAGUUAGUAGUGCAACCUGCUCGGUCUGAUGAGUCCCUAAGCGGACGAAACAGC	1.87
GCUGUCACCGAGAAACUGUGAAGUAUAUCUUAAACCUGGGCACUUAAAAGAUAUAUGGAGUUAGUAGUGCAACCUGCUCGGUCUGAUGAGUCCAAUCUCGGACGAAACAGC	1.86
GCUGUCACCGAGAAACUGUGAAGUAUAUCUUAAACCUGGGCACUUAAAAGAUAUAUGGAGUUAGUAGUGCAACCUGCUCGGUCUGAUGAGUCCCUCGCCGGACGAAACAGC	1.86
GCUGUCACCGAGAAACUGUGAAGUAUAUCUUAAACCUGGGCACUUAAAAGAUAUAUGGAGUUAGUAGUGCAACCUGCUCGGUCUGAUGAGUCCAUAACCGGACGAAACAGC	1.83
GCUGUCACCGAGAAACUGUGAAGUAUAUCUUAAACCUGGGCACUUAAAAGAUAUAUGGAGUUAGUAGUGCAACCUGCUCGGUCUGAUGAGUCCUCUAUCGGACGAAACAGC	1.84
